- Measurement target: Sentrin-specific protease 8 (Homo sapiens) (UniProt Q96LD8)
- Sequence (Q96LD8 whole entry, looked up): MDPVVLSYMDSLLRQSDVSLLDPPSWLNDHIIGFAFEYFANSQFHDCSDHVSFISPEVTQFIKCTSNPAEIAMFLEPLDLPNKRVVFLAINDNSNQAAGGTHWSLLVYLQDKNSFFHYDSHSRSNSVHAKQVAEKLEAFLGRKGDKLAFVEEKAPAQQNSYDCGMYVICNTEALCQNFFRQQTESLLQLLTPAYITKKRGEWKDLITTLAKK
- Test summary: blockers of human SENP8 peptidase activity – biochemical, luminescence, primary screen (AID 2540)
- Stated conditions: purified SENP8, Z-RLRGG-aminoluciferin cleavage, at 10 µM, hits give high values
Screen size: about 330,000 compounds; about 4,100 (1.2%) were called active. The sample holds actives, similar compounds and a random draw of the others, so the mix is not that of the screen.
Experimental readout: inhibition (%)
Your answer is read as %, so omit the unit and give the number.

Sample answers from the record:
# Compound, Unit label, inhibition
measured = [
    ("Cn1nnnc1-c1cc(Cl)cc(Cl)c1", "%", 3.44),
    ("COc1ccc(/C=C2\\SC(=O)N(CCC(=O)NC3CCS(=O)(=O)C3)C2=O)cc1 (configuration not stated)", "%", 2.13),
    ("Cc1ccc(NC(=O)CSCC(=O)Nc2sccc2C#N)cc1", "%", 10.4),
    ("O=C1/C(=C/c2cccs2)CCC1C1CCCC1 (configuration not stated)", "%", 80.6),
    ("COc1ccc(/C=C2\\CCc3ccccc3C2=O)c(OC)c1OC", "%", -6.3),
    ("O=C1/C(=C/c2cccs2)CCc2ccccc21", "%", 96.5),
    ("O=C(c1ccc(CSc2ccccc2)cc1)N1CCCCCC1", "%", 64.4),
    ("COc1ccc(/C=C2/SC(=O)N(CCCCCC(=O)Nc3ccccc3C(=O)O)C2=S)cc1", "%", 50.3),
]

Lab note: next compound to report on.
Please indicate inhibition recorded for CCC1C/C(=C/c2cccs2)C(=O)/C(=C/c2cccs2)C1 (configuration not stated)
-8.62
